The reported measurements were obtained from PubChem BioAssay (NCI).

Tested on: SK-MEL-28 melanoma
Assay: NCI tumour cell line growth inhibition, 48 h
Each item that follows carries a reported TGI.

# count of solved cases: 6
COMPOUND: COc1ccc(-c2c(C(C)=O)c(-c3ccccc3)n(C3OC(COC(C)=O)C(OC(C)=O)C(OC(C)=O)C3OC(C)=O)c(=S)c2C#N)cc1 (stereo not given)
VAL: > 100 µM

COMPOUND: S=C1Cc2c([nH]c3ccccc23)-c2ccccc2N1
VAL: > 100 µM

COMPOUND: NS(=O)(=O)c1nnc(NC(=O)c2ccccc2)s1
VAL: > 100 µM

COMPOUND: COc1cc([N+](=O)[O-])ccc1NC(=O)C(F)(F)F
VAL: > 100 µM

COMPOUND: Cc1ccc2nc3ccccc3c(C3C4C(=O)N(c5ccc(Br)cc5Cl)C(=O)C4ON3C(C(N)=O)c3ccccc3)c2c1 (stereo not given)
VAL: > 25 µM

COMPOUND: N#CCCN(CCC#N)c1ccc(/C=C2\N=C(CN3C(=O)c4ccccc4C3=O)OC2=O)cc1
VAL: > 100 µM

Using known records, supply TGI for CCCCCCCCCCC(O)C1CCC(C2CCC(C(O)CCCCC(O)CCCCCC(O)CC3=CC(C)OC3=O)O2)O1 (stereo not given)
> 25 µM

Using known records, supply TGI for COc1ccc2cc(C(=O)/C=C/c3cccc(OC)c3OC)ccc2c1
44.5 µM

---

System: SNB-19 CNS
Assay: NCI tumour cell line growth inhibition, 48 h
Each item that follows carries a reported TGI.

CHEMICAL_STRING: COc1cc(Cn2c(-c3ccccc3)cc3c2-c2oncc2CC3)cc(OC)c1OC
OBSERVATION_TYPE: TGI
VAL: > 100 µM
--
CHEMICAL_STRING: Nc1c(-c2ccc(Br)cc2)[n+]([O-])c2ccccc2[n+]1[O-]
OBSERVATION_TYPE: TGI
VAL: > 100 µM
--
CHEMICAL_STRING: C=CCN1C(=O)/C(=C/c2ccccc2)NC1=S
OBSERVATION_TYPE: TGI
VAL: > 100 µM
--
CHEMICAL_STRING: COc1cc(-c2c(C#N)c(N)n3c(nc4ccccc43)c2C#N)cc(Br)c1OC
OBSERVATION_TYPE: TGI
VAL: > 100 µM
--
CHEMICAL_STRING: CCOCNC(=O)N(COCC)COCC
OBSERVATION_TYPE: TGI
VAL: > 100 µM
--
CHEMICAL_STRING: O=C(Nc1ccc2nc(-c3ccccc3)cn2c1)Oc1ccccc1
OBSERVATION_TYPE: TGI
VAL: > 100 µM
--
CHEMICAL_STRING: NC(N)=NC(N)=Nc1cc2ccccc2c2ccccc12
OBSERVATION_TYPE: TGI
VAL: 21.6 µM
--
CHEMICAL_STRING: Oc1ccc2ccccc2c1N=Nc1ccc(F)cc1
OBSERVATION_TYPE: TGI
VAL: > 100 µM
--
CHEMICAL_STRING: CN(CCCNc1ccc2ncn3c4ccccc4c(=O)c1c23)CCCN1C(=O)c2cccc3cc([N+](=O)[O-])cc(c23)C1=O
OBSERVATION_TYPE: TGI
VAL: 2.28 µM
--
CHEMICAL_STRING: Cc1ccccc1Nc1cn(COCc2ccccc2)c(=O)[nH]c1=O
OBSERVATION_TYPE: TGI
VAL: > 100 µM

Then this compound:
Using known records, supply TGI for O=C1c2ccccc2S[C@@H](O)[C@@H]2CCCN12
> 100 µM

---

Test system: SK-MEL-28 melanoma
Assay: NCI tumour cell line growth inhibition, 48 h
OBSERVATION_TYPE: TGI

# count of solved cases: 8
COMPOUND: O=C1NNC(=O)C2C3c4ccccc4C(c4ccccc43)C12 (stereo unspecified)
TGI: > 100 µM

COMPOUND: Cc1cccc2c(N)c3cccc(C(=O)NCCCNCCN)c3nc12
TGI: 29.4 µM

COMPOUND: COc1ccc2c(c1)CCCc1cn[nH]c1-2
TGI: > 100 µM

COMPOUND: CCOC(=O)Cn1sc2ncc([N+](=O)[O-])cc2c1=O
TGI: 28.6 µM

COMPOUND: CC(C)=[CH][Sb]([Br])([CH]=C(C)C)([CH]=C(C)C)[CH]=C(C)C
TGI: > 100 µM

COMPOUND: COC(=O)C1=C(c2ccc3c(c2)OCO3)O[C@H](c2ccc3c(c2)OCO3)[C@H]1COC(C)=O
TGI: > 100 µM

COMPOUND: COc1cc2c(/C=C3/C(=O)Nc4cccc(Cl)c43)c(Cl)n(Cc3ccccc3)c2cc1C
TGI: 43.7 µM

COMPOUND: Cc1ccccc1Nc1cn(COCc2ccccc2)c(=O)[nH]c1=O
TGI: > 100 µM

Using known records, supply TGI for CCCN=C(NC(=O)c1ccc(Cl)cc1)SC
> 100 µM

Using known records, supply TGI for CC[C@]12C=CCN3CC[C@@]4(c5ccc(OC)cc5N(C)[C@H]4[C@@](O)(C(=O)OC)[C@@H]1OC(C)=O)[C@@H]32
> 200 µM

Using known records, supply TGI for C[C@]12CC[C@@H]3c4ccc(O)cc4C[C@@H](CCCCCCCCCS(=O)CCCC(F)(F)C(F)(F)F)[C@H]3[C@@H]1CC[C@@H]2O (stereo partly specified)
> 100 µM

Using known records, supply TGI for N#CCCN(CCC#N)c1ccc(C(=O)NN)cc1
> 100 µM

Using known records, supply TGI for CCC1(O)C(=O)OCc2c1cc1n(c2=O)Cc2cc3c(N)cccc3nc2-1 (stereo unspecified)
9.19 µM

Using known records, supply TGI for Cn1cc(C2=C(c3cn(CCCN=C(N)N)c4ccccc34)C(=O)NC2=O)c2ccccc21
> 25 µM

Using known records, supply TGI for S=C(/N=c1/sc(Nc2ccccc2)nc2sc3c(c12)CCCC3)Nc1ccccc1
> 62.5 µM

Using known records, supply TGI for Cc1cc(C2CCCCC2)n(O)c(=O)c1
> 100 µM

Using known records, supply TGI for O=C1NC(Nc2cccc(Cl)c2)=N/C1=C\c1ccc(Cl)c(Cl)c1
32.1 µM

Using known records, supply TGI for CCOC(=O)c1c(C)n(Cc2ccc(OC)cc2)c2c1cc(O)c1[nH]c3c(c12)CCCC3
> 100 µM

Using known records, supply TGI for CC1=CC(=O)NCCN1C
> 100 µM

Using known records, supply TGI for COc1cc(C(=O)O[C@H](C(N)=O)[C@]2(C)CO2)c2ccccc2c1
31.5 µM

Using known records, supply TGI for CC(=O)OCC1OC(N2C(c3ccccc3)=CC(c3ccccc3)C(C#N)=C2S)C(OC(C)=O)C(OC(C)=O)C1OC(C)=O (stereo unspecified)
> 100 µM

---

System: KM12 colon
Experiment: NCI tumour cell line growth inhibition, 48 h
OBSERVATION_TYPE: TGI

# count of solved cases: 4
MOLECULE: O=C1NNC(=O)C2C3c4ccccc4C(c4ccccc43)C12 (stereo unspecified)
TGI: > 100 µM
--
MOLECULE: O=C(c1ccc(Cl)cc1Cl)N(C(=O)N1CCCCC1)c1ccccc1
TGI: > 100 µM
--
MOLECULE: Brc1ccc2c(-c3nc(-c4c[nH]c5ccc(Br)cc45)cs3)c[nH]c2c1
TGI: 8.19 µM
--
MOLECULE: CCCNC(=S)N/N=C(\C)c1ccccn1
TGI: > 100 µM

Then this molecule:
Using known records, supply TGI for CCOC(=O)NC(=O)c1cn(CCCOC(=O)NCCCCCCNC(=O)OCCCn2c(=O)c(C(=O)NC(=O)OCC)cn(C)c2=O)c(=O)n(C)c1=O
> 100 µM

---

Test system: CAKI-1 renal
Assay: NCI tumour cell line growth inhibition, 48 h; in the data active = GI50 below about 0.43 µM; inactive = the rest
Entry note: the call must match one of true = active, false = inactive

Solved entries:
CHEMICAL_STRING: O=C(CCCSc1nc(-c2ccc(Cl)cc2)cc(-c2ccc(Cl)cc2)n1)NO
TARGET_SYSTEM: CAKI-1 renal
LABEL: true
//
CHEMICAL_STRING: COc1cc2c3c(n(CCCCl)c(=O)c2cc1OC)-c1ccccc1C3=O
TARGET_SYSTEM: CAKI-1 renal
LABEL: false
//
CHEMICAL_STRING: O=C(C[C@@H](C(=O)NCc1cccc(C(F)(F)F)c1)N1C(=O)[C@@H](N2C(=O)OC[C@@H]2c2ccccc2)[C@H]1/C=C/c1ccccc1)NC1CCN(Cc2ccccc2)CC1
TARGET_SYSTEM: CAKI-1 renal
LABEL: false
//
CHEMICAL_STRING: Cc1cc(C)cc(Nc2cc(C)nc3nc(C(F)(F)F)nn23)c1
TARGET_SYSTEM: CAKI-1 renal
LABEL: false
//
CHEMICAL_STRING: CN1C(NC(=O)c2ccc(Cl)nc2)=NS(=O)(=O)c2cc(Cl)ccc21
TARGET_SYSTEM: CAKI-1 renal
LABEL: false

Hi team, can someone confirm the assay call for CC(C)(C)OC(=O)N(CCCN(CCn1c2c(c3ccccc3c1=O)C(=O)c1ccccc1-2)C(=O)OC(C)(C)C)CCn1c2c(c3ccccc3c1=O)C(=O)c1ccccc1-2 ?
false

Hi team, can someone confirm the assay call for COC(=O)c1cc2c(c(C(=O)OC)c1O)C(=O)C=CC2=O ?
false

Hi team, can someone confirm the assay call for COc1ccc(C(=O)/C=C/c2cccnc2Nc2cc(OC)c(OC)c(OC)c2)cc1 ?
false
